# system-name: T1, human GFRα3 expressed with a C-terminal myc-myc-hexahistidine tag (human, UniProt O60609 32-374, biotinylated (sites not given) in ELISA format 2 and in the Octet cross-competition; not in SPR)
# T1 construct: also called hGFRα3-mmh; hGFRα3-mmH
# T1 sequence (O60609 other isoform, or with tags, fused parts or gaps limits assumed): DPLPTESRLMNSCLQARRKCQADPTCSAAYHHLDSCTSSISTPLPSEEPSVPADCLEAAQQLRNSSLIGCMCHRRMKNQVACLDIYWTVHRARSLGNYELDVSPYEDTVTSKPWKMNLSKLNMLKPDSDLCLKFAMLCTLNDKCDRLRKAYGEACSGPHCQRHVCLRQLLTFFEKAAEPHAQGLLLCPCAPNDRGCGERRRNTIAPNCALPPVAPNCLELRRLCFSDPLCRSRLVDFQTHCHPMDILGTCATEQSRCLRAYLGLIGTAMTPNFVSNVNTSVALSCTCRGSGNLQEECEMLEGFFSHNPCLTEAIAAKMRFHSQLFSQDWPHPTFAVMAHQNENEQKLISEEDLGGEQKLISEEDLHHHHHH
# experiment: SPR, Ab captured, 25C
Listed binders paired with reported kon
State the answer as a number, implicitly in M⁻¹ s⁻¹.

| binder | kon (M⁻¹ s⁻¹) |
| --- | --- |
| H4H2344S (antibody, human IgG4, V domains shown, human IgG4 Fc (H4H)) VH: EVQLVESGGGVVQPGRSLRLSCAASGFSFSDYVMHWVRQAPGKGLEWVASIWFDGSNEFYADSVKGRFTISRDNSKNTLFLQMNSLRAEDTAVYYCAKKGVLVATSAFDIWGQGTMVTVSS VL: DIQMTQSPSSLSASVGDRVTITCRASQSINNYLNWYHQKPGKAPKLLIYAASSLQSGVPSRFSGSGSGTDYTLTISSLQPEDFGNYYCQQSYRTSMYTFGQGTKVEIK | 183000 |

The reported kon of the binder H2aM2210N (antibody, mouse IgG2, V domains shown, chimeric, mouse IgG2 Fc (H2M/H2aM); also called H2M2210N) VH: EVQLLESGGGLVQPGGSLRVSCAASGFTFSTSAMSWVRQAPGKGLEWVSGISGIGGGSTYYADSVKGRFTISRDNSKNTLYLQMNSLRAEDTAVYFCAKFYKWNSYIFDLWGQGTMVTVSS VL: EIVLTQSPDTLSLSPGERATLSCRASQSVSSSYFAWYQQKPGQAPRLLMYSASSRATGIPDRFSGSGSGTDFSLTISRLEPEDFAVYYCQQYGRSLTFGGGTKVEIK was 67300

The reported kon of the binder H1M2243N (antibody, V domains shown, chimeric, human variable and mouse constant domains (H1M)) VH: QVQLVQSGAEVKKPGASVKVSCKASGYTFTSYGIIWVRQAPGQGLEWMGWISGYNGNTNYTQNLQGRVTMTTDTSTTTAYMELRSLRSDDTAVYYCARWGIATRPYYYYGMDVWGQGTTVTVSS VL: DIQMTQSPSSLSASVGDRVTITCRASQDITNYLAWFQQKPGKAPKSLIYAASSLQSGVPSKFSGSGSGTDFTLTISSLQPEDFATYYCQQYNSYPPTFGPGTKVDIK was 128000

The reported kon of the binder H4H2357S (antibody, human IgG4, V domains shown, human IgG4 Fc (H4H)) VH: EVQLVESGGGLVQPGGSLRLSCAASTFTFSSYAMTWVRQAPGKGLEWVSSISGSGDSTYYADSVKGRFTISRDNSKNTLFLQMNSLRAEDTAVYYCAKKDGPGRYYVRYGMDVWGQGTTVTVSS VL: DIQMTQSPSSVSASVGDRVTITCRASQGISSWLAWYQQKPGKAPKLLIYTTSSLQSGVPSRFSGSGSGTDFTLTISSLQPEDFATYYCQQANSFPLTFGGGTKVDIK was 230000

Recorded values, source patent US20140056903A1.
